assay: self-splicing fitness, log relative to wild type (ln ratio); higher = more splicing; Tetrahymena group I intron in knt gene, E. coli kanamycin selection, DiMSum; sequences stand for … in CUCUCU…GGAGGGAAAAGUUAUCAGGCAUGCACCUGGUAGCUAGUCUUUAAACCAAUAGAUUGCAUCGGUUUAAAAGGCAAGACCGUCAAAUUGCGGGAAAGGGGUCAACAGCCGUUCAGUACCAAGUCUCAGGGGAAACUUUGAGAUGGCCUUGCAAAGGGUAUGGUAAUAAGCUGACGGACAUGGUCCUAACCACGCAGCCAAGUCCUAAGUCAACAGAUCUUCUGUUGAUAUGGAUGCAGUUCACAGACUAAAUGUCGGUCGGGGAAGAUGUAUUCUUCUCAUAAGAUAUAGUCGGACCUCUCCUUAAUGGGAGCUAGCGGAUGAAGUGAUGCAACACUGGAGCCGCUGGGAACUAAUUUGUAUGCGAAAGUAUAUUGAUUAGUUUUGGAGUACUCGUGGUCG; conditions: 30 °C;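 note: selection with 25 µg/mL kanamycin versus none on LB agar overnight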
Class (by self-splicing fitness (ln)) -- c1 = under -3, c2 = from -3 up to -2, c3 = -2 and over

| Chain | Class label |
| --- | --- |
| GCAUAGCAAUAUUACGCAUC | c1 |

Req: State the band of GAUGAGCAAUAUUACGUGUC
Resp: c1

Req: State the band of UGCUAGCAAUAUUACGGAAU
Resp: c1

Req: State the band of GCUGAGCAAUAUUACGGUUC
Resp: c2

Req: State the band of CGCCAGCAAUAUUACGUAGA
Resp: c3

Req: State the band of GAGUAGCAAUAUUACGGUGC
Resp: c3

Req: State the band of GGGCAGCAAUAUUACGUACA
Resp: c3

Req: State the band of UUGAAGCAAUAUUACGAUUG
Resp: c3

Req: State the band of UGGUAGCAAUAUUACGACCA
Resp: c3

Req: State the band of GACGAGCAAUAUUACGGAAU
Resp: c1

* * *

test: self-splicing fitness, log relative to wild type (ln ratio); higher = more splicing; Tetrahymena group I intron in knt gene, E. coli kanamycin selection, DiMSum; sequences stand for … in CUCUCU…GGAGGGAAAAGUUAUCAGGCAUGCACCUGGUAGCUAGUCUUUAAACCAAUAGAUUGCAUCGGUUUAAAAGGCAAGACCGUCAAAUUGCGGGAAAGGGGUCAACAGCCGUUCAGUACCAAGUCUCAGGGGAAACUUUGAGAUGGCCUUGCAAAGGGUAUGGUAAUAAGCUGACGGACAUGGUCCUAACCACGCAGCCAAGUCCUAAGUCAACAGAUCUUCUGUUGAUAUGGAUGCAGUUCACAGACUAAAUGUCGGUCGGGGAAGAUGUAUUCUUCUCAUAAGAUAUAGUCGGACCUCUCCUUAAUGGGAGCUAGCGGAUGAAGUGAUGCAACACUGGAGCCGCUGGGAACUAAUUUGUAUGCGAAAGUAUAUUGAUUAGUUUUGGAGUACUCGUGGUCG; settings: 37 °C
# self-splicing fitness (ln) per entry
# respond with the number and nothing more

Some solved cases for reference:
| Chain | self-splicing fitness (ln) |
| --- | --- |
| AGCAAGCAAUAUUACGAUAU | -1.51 |
| CCAUAGCAAUAUUACGACAA | -2.94 |
| CGCUAGCAAUAUUACGGUGG | -2.3 |
| GCUUAGCAAUAUUACGAACA | -0.519 |
| CAAAAGCAAUAUUACGUGUU | -2.37 |

Req: # get_value(readout='self-splicing fitness (ln)', item= AGCAAGCAAUAUUACGCCGA )
Resp: -0.63

Req: # get_value(readout='self-splicing fitness (ln)', item= UUUGAGCAAUAUUACGGCAG )
Resp: -1.56

Req: # get_value(readout='self-splicing fitness (ln)', item= UUGGAGCAAUAUUACGUGCC )
Resp: -2.74

Req: # get_value(readout='self-splicing fitness (ln)', item= ACCUAGCAAUAUUACGGUAC )
Resp: -2.76

Req: # get_value(readout='self-splicing fitness (ln)', item= GAGCAGCAAUAUUACGAGAU )
Resp: -2.64

* * *

test: self-splicing fitness, log relative to wild type (ln ratio); higher = more splicing; Tetrahymena group I intron in knt gene, E. coli kanamycin selection, DiMSum; sequences stand for … in CUCUCU…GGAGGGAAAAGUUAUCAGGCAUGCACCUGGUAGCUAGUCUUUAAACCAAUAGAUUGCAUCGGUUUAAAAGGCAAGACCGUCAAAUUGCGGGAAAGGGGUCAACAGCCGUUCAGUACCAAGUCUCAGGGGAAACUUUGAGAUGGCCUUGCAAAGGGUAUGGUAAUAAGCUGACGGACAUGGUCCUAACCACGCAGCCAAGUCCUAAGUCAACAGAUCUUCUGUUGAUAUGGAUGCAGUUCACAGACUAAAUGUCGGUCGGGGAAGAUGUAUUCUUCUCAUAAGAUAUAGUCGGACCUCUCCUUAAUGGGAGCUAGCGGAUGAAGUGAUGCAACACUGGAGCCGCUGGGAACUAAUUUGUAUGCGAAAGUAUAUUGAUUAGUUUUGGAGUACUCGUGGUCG; conditions: 30 °C
Quantity name: self-splicing fitness (ln)
# respond with the number and nothing more

Req: # get_value(readout='self-splicing fitness (ln)', item= CAUGAGCAAUAUUACGCCUU )
Resp: -3.02

* * *

assay: self-splicing fitness, log relative to wild type (ln ratio); higher = more splicing; Tetrahymena group I intron in knt gene, E. coli kanamycin selection, DiMSum; sequences stand for … in CUCUCU…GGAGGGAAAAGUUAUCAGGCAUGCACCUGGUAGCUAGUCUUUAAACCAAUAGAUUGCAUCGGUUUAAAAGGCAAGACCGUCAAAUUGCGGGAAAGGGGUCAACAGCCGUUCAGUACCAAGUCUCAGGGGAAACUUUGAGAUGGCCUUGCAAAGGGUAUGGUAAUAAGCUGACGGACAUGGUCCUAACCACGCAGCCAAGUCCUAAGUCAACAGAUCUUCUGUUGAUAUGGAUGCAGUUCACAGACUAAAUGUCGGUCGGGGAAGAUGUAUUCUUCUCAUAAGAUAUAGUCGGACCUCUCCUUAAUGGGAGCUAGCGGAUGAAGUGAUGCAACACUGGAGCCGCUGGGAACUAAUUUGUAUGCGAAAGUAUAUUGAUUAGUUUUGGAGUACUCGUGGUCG; details: 30 °C
Quantity name: self-splicing fitness (ln)
# respond with the number and nothing more

Some solved cases for reference:
| Chain | self-splicing fitness (ln) |
| --- | --- |
| CGAUAGCAAUAUUACGCUGC | -3.15 |
| UGUCAGCAAUAUUACGCAGA | -2.8 |

Req: # get_value(readout='self-splicing fitness (ln)', item= GAGGAGCAAUAUUACGUGCC )
Resp: -3.24

Req: # get_value(readout='self-splicing fitness (ln)', item= CUCAAGCAAUAUUACGCUGC )
Resp: -3.68

Req: # get_value(readout='self-splicing fitness (ln)', item= AAUCAGCAAUAUUACGGUGC )
Resp: -0.892

Req: # get_value(readout='self-splicing fitness (ln)', item= GCCCAGCAAUAUUACGGACA )
Resp: -0.873

Req: # get_value(readout='self-splicing fitness (ln)', item= UUUAAGCAAUAUUACGUCCA )
Resp: -1.08

Req: # get_value(readout='self-splicing fitness (ln)', item= CUCGAGCAAUAUUACGUGCG )
Resp: -3.08

* * *

assay: self-splicing fitness, log relative to wild type (ln ratio); higher = more splicing; Tetrahymena group I intron in knt gene, E. coli kanamycin selection, DiMSum; sequences stand for … in CUCUCU…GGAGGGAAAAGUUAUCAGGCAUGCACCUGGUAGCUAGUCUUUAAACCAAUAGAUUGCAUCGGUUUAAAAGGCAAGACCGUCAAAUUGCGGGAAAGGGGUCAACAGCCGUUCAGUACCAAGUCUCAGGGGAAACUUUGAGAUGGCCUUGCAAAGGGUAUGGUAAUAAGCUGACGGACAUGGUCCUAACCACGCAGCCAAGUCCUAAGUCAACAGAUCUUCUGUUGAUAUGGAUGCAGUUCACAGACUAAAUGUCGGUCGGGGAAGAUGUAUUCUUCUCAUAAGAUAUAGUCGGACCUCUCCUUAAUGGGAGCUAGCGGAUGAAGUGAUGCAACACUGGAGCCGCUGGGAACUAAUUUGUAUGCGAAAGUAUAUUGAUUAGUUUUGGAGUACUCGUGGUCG; details: 30 °C
Each entry gets NOT MET if its self-splicing fitness (ln) stays under -2, and MET if its self-splicing fitness (ln) is -2 or above.

Solved entries:
| Chain | Class label |
| --- | --- |
| UGGAAGCAAUAUUACGGCCA | MET |
| GUCAAGCAAUAUUACGAUCC | MET |
| GAUGAGCAAUAUUACGUGCG | NOT MET |
| ACAAAGCAAUAUUACGGAAG | NOT MET |
| AUGCAGCAAUAUUACGAGGA | NOT MET |
| AUGAAGCAAUAUUACGCAGA | MET |

In the following, a different sequence is considered.
Req: Check the entry GCUGAGCAAUAUUACGGGCG : does self-splicing fitness (ln) equal or exceed -2?
Resp: MET
